Numbers sourced from patent US20260021103A1.

biological target: GSPT1 (Homo sapiens, UniProt P15170+Q96SW2); assay: Flow cytometry for measuring degradation, HEK293T GFP-POI reporter cells (GSPT1); format: cell-based; design: expressed in transfected cells; host or cells: HEK293T; conditions: 100 nM, 24 h, HEK293T GFP reporter
Sequence (P15170 whole entry): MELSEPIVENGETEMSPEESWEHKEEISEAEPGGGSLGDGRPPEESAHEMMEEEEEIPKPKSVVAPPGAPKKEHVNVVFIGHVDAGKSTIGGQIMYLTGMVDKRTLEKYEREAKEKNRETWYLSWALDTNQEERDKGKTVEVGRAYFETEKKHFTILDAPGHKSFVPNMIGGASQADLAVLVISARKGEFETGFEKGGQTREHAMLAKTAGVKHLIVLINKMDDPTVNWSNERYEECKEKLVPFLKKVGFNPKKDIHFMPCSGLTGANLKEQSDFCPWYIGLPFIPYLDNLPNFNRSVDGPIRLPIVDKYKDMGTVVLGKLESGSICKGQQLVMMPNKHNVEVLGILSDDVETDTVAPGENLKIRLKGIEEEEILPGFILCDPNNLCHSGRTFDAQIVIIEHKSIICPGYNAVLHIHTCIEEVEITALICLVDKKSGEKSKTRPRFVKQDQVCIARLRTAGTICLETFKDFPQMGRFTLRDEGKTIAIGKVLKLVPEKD
Sequence (Q96SW2 whole entry): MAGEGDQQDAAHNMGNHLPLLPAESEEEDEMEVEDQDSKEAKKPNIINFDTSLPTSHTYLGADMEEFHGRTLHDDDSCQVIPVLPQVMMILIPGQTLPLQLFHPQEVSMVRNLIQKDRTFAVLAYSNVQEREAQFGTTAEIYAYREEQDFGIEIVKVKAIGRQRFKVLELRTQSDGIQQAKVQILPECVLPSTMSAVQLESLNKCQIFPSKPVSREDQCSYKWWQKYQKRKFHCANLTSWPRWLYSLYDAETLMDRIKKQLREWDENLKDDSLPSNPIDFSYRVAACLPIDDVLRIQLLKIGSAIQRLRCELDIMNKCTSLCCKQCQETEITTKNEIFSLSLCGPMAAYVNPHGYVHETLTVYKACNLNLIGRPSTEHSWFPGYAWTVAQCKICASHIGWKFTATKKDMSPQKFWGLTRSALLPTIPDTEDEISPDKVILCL
Sequence (Q16531 whole entry partner): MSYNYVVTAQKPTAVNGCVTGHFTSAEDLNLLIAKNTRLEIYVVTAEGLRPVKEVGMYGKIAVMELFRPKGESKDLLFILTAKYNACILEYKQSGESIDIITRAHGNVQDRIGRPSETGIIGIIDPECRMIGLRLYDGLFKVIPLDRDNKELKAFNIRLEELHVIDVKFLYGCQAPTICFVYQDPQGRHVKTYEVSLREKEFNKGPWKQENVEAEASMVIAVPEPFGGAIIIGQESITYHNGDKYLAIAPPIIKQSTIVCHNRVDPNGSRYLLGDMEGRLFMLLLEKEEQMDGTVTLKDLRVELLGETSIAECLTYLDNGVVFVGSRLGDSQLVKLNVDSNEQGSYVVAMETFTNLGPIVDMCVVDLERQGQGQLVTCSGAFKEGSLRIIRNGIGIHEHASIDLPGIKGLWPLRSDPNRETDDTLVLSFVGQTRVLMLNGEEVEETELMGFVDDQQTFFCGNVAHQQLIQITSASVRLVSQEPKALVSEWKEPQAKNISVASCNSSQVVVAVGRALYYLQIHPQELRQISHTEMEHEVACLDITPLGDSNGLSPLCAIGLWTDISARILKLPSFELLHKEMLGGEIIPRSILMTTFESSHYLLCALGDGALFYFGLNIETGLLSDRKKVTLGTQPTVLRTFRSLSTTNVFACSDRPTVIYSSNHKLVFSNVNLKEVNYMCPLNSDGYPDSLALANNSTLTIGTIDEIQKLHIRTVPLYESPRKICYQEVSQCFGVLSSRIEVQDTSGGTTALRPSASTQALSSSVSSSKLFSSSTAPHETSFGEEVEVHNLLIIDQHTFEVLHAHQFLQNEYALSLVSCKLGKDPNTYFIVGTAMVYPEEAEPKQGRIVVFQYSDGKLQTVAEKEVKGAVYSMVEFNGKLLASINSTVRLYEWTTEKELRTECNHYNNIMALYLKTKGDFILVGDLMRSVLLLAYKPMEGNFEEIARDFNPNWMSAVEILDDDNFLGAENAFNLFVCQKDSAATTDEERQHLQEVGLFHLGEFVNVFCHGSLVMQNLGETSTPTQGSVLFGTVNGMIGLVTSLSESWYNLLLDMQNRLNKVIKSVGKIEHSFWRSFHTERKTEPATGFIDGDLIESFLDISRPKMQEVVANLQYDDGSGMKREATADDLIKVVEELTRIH
readout kind: GSPT1% degradation at 100 nM (%)
Numbers only, in %.

// solved cases for GSPT1% degradation at 100 nM follow
INSERT INTO measurements (compound, readout_kind, value_units, value_reported) VALUES
  ('CN1C(=O)COc2cc(C(=O)Nc3ccc4c(c3)CN(C3CCC(=O)NC3=O)C4=O)ccc21 (centres unmarked) [DEG-94]', 'GSPT1% degradation at 100 nM', '%', 9.3),
  ('O=C1CCC(N2Cc3cc(NC(=O)c4cc5ccccc5o4)ccc3C2=O)C(=O)N1 (centres unmarked) [DEG-59]', 'GSPT1% degradation at 100 nM', '%', 2),
  ('O=C1CCC(N2Cc3cc(NC(=O)C4=Cc5ccccc5OC4)ccc3C2=O)C(=O)N1 (centres unmarked) [DEG-52]', 'GSPT1% degradation at 100 nM', '%', 10.5),
  ('COc1ccc(CCC(=O)Nc2ccc3c(c2)CN(C2CCC(=O)NC2=O)C3=O)cc1 (centres unmarked) [DEG-57]', 'GSPT1% degradation at 100 nM', '%', 11.7),
  ('N#Cc1ccc2cc(C(=O)Nc3ccc4c(c3)CN(C3CCC(=O)NC3=O)C4=O)ccc2c1 (centres unmarked) [DEG-91]', 'GSPT1% degradation at 100 nM', '%', 9.7);

// batch mode: one GSPT1% degradation at 100 nM value per listed entry
1. O=C1CCC(N2Cc3cc(NC(=O)c4ccc(Oc5ccccc5)cc4)ccc3C2=O)C(=O)N1 (centres unmarked) [DEG-61]
2. COc1ccc2cccc(CC(=O)Nc3ccc4c(c3)CN(C3CCC(=O)NC3=O)C4=O)c2c1 (centres unmarked) [DEG-68]

Result:
1: 10.2; 2: 16.6

// batch mode: one GSPT1% degradation at 100 nM value per listed entry
1. CC(=O)Nc1ccc2c(c1)CN(C1CCC(=O)NC1=O)C2=O (centres unmarked) [DEG-66]
2. COc1ccc(Oc2ccc(C(=O)Nc3ccc4c(c3)CN(C3CCC(=O)NC3=O)C4=O)cc2)cc1 (centres unmarked) [DEG-70]
3. COc1cccc2c1OCC(C(=O)Nc1ccc3c(c1)CN(C1CCC(=O)NC1=O)C3=O)=C2 (centres unmarked) [DEG-77]
4. Cc1ccc2c(c1)OCC(C(=O)Nc1ccc3c(c1)CN(C1CCC(=O)NC1=O)C3=O)=C2 (centres unmarked) [DEG-80]
5. CS(=O)(=O)c1ccc2cc(C(=O)Nc3ccc4c(c3)CN(C3CCC(=O)NC3=O)C4=O)ccc2c1 (centres unmarked) [DEG-93]
6. COCOc1ccc2cc(C(=O)Nc3ccc4c(c3)CN(C3CCC(=O)NC3=O)C4=O)ccc2c1 (centres unmarked) [DEG-92]
7. O=C1CCC(N2Cc3cc(NC(=O)c4ccc5c(c4)CCCC5)ccc3C2=O)C(=O)N1 (centres unmarked) [DEG-87]

Result:
9.9
4.3
3.7
14.3
7.8
5.3
1.2
